For each entry below, report its growth inhibition value.
# EXPERIMENT SUMMARY: NCI Yeast Anticancer Drug Screen. Data for the rad50EPP+ strain (AID 151);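 note: 0% = growth of vehicle-treated control cultures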
# PROTOCOL CONDITIONS: S. cerevisiae rad50 mutant strain, at 33.0 µM, stronger effect = higher value
Compounds without any hit were thinned out: in the full panel of roughly 79,000, 15% have a hit. Activity calls are given as the source filed them. Cut-off read from the data, not from the text of the source: active = growth inhibition above about 70%; inactive = the rest.

Specify measured growth inhibition for "Brc1ccc(-c2cc3c(cc2C2SCCS2)OCO3)cc1" .
29% (inactive)

Return value of growth inhibition for input "CCOC(=O)C1=C(C(=O)c2ccccc2)C(c2ccccc2[N+](=O)[O-])C(C(=O)c2ccccc2)=C(C(=O)OCC)N1" , no commentary.
18% (inactive)

For the compound "Cc1ccc(S(=O)(=O)NCCSS(=O)(=O)c2ccc(C)cc2)cc1" , give its measured growth inhibition value.
91% (active)

Indicate its recorded growth inhibition; the compound in question is CC(=O)OCC(=O)C1(O)CCC2C3CCC4CCCCC4(C)C3CCC21C (stereo not given)
-22% (inactive)

Return the recorded growth inhibition value; entry: "O=[N+]([O-])C(=C(Sc1ccccc1)Sc1ccccc1)C(Cl)=C(Cl)Cl"
49% (inactive)

Please report the measured growth inhibition for Nc1ccn(C2OC(CO)C3[O][Sn]([c]4ccccc4)([c]4ccccc4)[O]C32)c(=O)n1 (stereo not given)
6% (inactive)

Provide one value: measured growth inhibition of C=CC(C)(O)CCC1C(=C)C(O)CC2C(C)(C)CCCC12C (stereo not given)
0% (inactive)

Quick one: give measured growth inhibition for "NC(=O)NN=C(CS)CS"
6% (inactive)

Look up and state reported growth inhibition for "CC(=O)N/N=C/C(C)(C)C(C)(C)/C=N/NC(C)=O"
18% (inactive)

Look up and state reported growth inhibition for "CC[n+]1ccc2c(C)c3[nH]c4ccc(O)cc4c3c(C)c2c1"
85% (active)

Let me know recorded growth inhibition for "COc1ccc2nc3c([N+](=O)[O-])ccc(NCCN(C)C)c3c(NCCN(C)C)c2c1" , thanks.
5% (inactive)

Please report the measured growth inhibition for "O=[N+]([O-])c1cccc2nc3ccccc3c(NCCCN3CCOCC3)c12"
92% (active)

Tell me its growth inhibition given "O=C1c2ccccc2-c2nc3ccccc3nc21" as the entry.
95% (active)

Assign growth inhibition to the following record: CC(C)=CC(=O)O[C@@H]1CC(C)(C)CC2C3=CCC4[C@]56CC[C@](O)(OC5)C(C)(C)C6CC[C@@]4(C)C3(C)CC[C@]21C(=O)O (stereo not given in full)
14% (inactive)

Let me know recorded growth inhibition for Cc1c(C(Cc2ccccc2N(C)C(=O)/C=C\C(=O)O)c2c[nH]c3ccccc23)c2ccccc2n1C (stereo not given) , thanks.
-6% (inactive)

Determine its reported growth inhibition: CCOC(=O)[C@H]1Nc2ccccc2C2c3ccccc3CC21 (stereo not given in full)
31% (inactive)

Using known records, supply growth inhibition for FC(F)(F)c1cc(NC(=S)N2c3ccccc3-n3cccc3C2c2cccnc2)cc(C(F)(F)F)c1 (stereo not given)
42% (inactive)

Return growth inhibition for the following compound: "C/C(=N\NC(=S)N1CCCCC1)c1cccc(C)n1"
99% (active)

Please supply the value of reported growth inhibition for the item "Cc1ccc(S/N=C\c2ccccc2O)cc1"
17% (inactive)

For the compound "O=C(CCCN1CCC(O)(c2ccc(Cl)cc2)CC1)c1ccc(F)cc1" , give its reported growth inhibition.
-6% (inactive)

Determine its reported growth inhibition: "COc1cc(C(=O)/C=C/c2ccccc2O)ccc1O"
99% (active)

Give the value of growth inhibition reported for the following: "CC1(C)[C@@H]2CC[C@]1(C)[C@H](OC(=O)CSC#N)C2"
24% (inactive)

Find the measured growth inhibition of "[N-]=[N+]=NC1=C(c2ccccn2)C(=O)c2cccc3cccc1c23" and report it.
74% (active)

// fetch growth inhibition given entry "COC(=O)c1ccc(NCC2=CC(=O)C=CC2=O)cc1O"
97% (active)

Give me measured growth inhibition, please, for this compound: "O=C1C=CC(=O)N1c1ccc2c(c1)Cc1cc(NC(=O)C(F)(F)F)ccc1-2"
91% (active)

Item "O=C(NC(Nc1ccc(F)c(Cl)c1)(C(F)(F)F)C(F)(F)F)C(C(F)(F)F)C(F)(F)F" : provide growth inhibition
-16% (inactive)

Recall and state the measured growth inhibition for "O=C1CSc2cc([N+](=O)[O-])ccc2N1" .
3% (inactive)

Assign growth inhibition to the following record: "Cc1c(C2=C(Br)C(=O)N(C)C2=O)c(=O)n(C)c(=O)n1C"
1% (inactive)

State, in one line, measured growth inhibition of "CC(C)/C(Cl)=N\OC(=O)Nc1ccc(F)cc1"
57% (inactive)

For the compound "O=[N+]([O-])c1cccc2nccc(NCCCO)c12" , give its measured growth inhibition value.
27% (inactive)

Input "CCOC(=O)c1cnc2c(C(F)(F)F)cccc2c1N=[N+]=[N-]" , output reported growth inhibition.
86% (active)

Annotate the compound "O=c1ssc2ncccc12" with its measured growth inhibition.
86% (active)

Identify measured growth inhibition associated with C=CCC1=C(C)C(OC(=O)/C=C/c2ccccc2)CC1=O (stereo not given)
7% (inactive)

Answer with reported growth inhibition of "O=[N+]([O-])c1cc(CCl)ccc1CCl"
97% (active)

Return growth inhibition (reported value) for this compound: "CNC(=O)OCc1c(COC(=O)NC)c(-c2ccc(-c3ccccc3)cc2)n(C)c1C"
-14% (inactive)

Given "CC[C@@]1(O)C(=O)OCc2c1cc1n(c2=O)Cc2cc3c(CN(C)C)c(O)ccc3nc2-1" , respond with its growth inhibition.
23% (inactive)

// fetch growth inhibition given entry "Cc1ccc(Cl)c2[nH]c(-c3ccccc3)cc(=O)c12"
9% (inactive)

Note growth inhibition for the compound shown: "c1ccc2c(c1)sc1cc3ccncc3cc12"
94% (active)

Report measured growth inhibition; entry is "c1ccc2c(c1)c1ncccc1c1nccnc21"
69% (inactive)

Identify measured growth inhibition associated with "Cn1c(=O)c2ccccc2c2ccccc21"
87% (active)

For the compound "CCN(CC)CCNc1ccc([N+](=O)[O-])c2nc3ccc(OC)cc3c(N)c12" , give its measured growth inhibition value.
69% (inactive)

Specify growth inhibition for "Cc1ccc(NC(=O)/C(Cl)=C(\Cl)C(=O)O)cc1C" and stop.
99% (active)

Dear colleague, please send me the reported growth inhibition for COC(=O)C1=C(C(=O)OC)C2(C)C=CC1O2 (stereo not given) when you can.
20% (inactive)

Give the reported value of growth inhibition for this record: "C[C@H](CCC(=O)NN)[C@H]1CC[C@H]2[C@@H]3CC[C@@H]4C[C@H](O)CC[C@]4(C)[C@H]3CC[C@]12C"
6% (inactive)

Using known records, supply growth inhibition for "O=CC=C(c1ccccc1)c1ccccc1"
43% (inactive)
